These data points were gathered from patent EP4610269A1.

molecular target: human uPAR (uPAR-Fc) (Homo sapiens); construct: comprising amino acids Leu23-Arg303 according to UniProt entry Q03405.1; purchased R&D Systems 10378-UK-100; assay: Surface plasmon resonance (SPR) assay, single cycle kinetics; assay type: binding; conditions: pKD category for uPAR SPR activity assay; uPAR-Fc on Protein A-Chip, single cycle kinetics, 25°C; read-out: pKD CAT (converted)
Sequence (Q03405 23-303): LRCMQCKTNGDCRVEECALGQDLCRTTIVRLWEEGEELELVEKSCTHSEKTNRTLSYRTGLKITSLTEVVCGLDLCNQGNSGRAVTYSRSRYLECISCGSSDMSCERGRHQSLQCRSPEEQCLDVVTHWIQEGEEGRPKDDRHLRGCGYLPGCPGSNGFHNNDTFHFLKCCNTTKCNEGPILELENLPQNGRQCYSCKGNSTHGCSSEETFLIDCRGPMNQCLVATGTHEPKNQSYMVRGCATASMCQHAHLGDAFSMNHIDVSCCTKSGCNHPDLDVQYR
Where a SMILES comes first, the peptide text is derived from it. Bridges are numbered along the chain shown (N, C = ends). [ ]: non-standard residue; d: D form. The star is where a group is joined. Pro(cis-4-F) = O=C(O)[C@@H]1C[C@H](F)CN1; Hyp = O=C(O)[C@@H]1C[C@@H](O)CN1; Pentanoyl(4-Me) = CC(C)CCC(=O)*; Cit = NC(=O)NCCC[C@H](N)C(=O)O; Phg = N[C@H](C(=O)O)c1ccccc1; Pip = O=C(O)[C@@H]1CCCCN1; Nva = CCC[C@H](N)C(=O)O; Pentanoyl = CCCCC(=O)*; Aib = CC(C)(N)C(=O)O
Each entry below carries its recorded Kd.

Some compounds with recorded Kd:
CC[C@H](C)[C@@H]1NC(=O)[C@@H](C)NC(=O)[C@@H]2C[C@H](F)CN2C(=O)[C@H](Cc2ccccc2)NC(=O)[C@H](Cc2ccc(O)cc2)NC(=O)[C@H](CCC(N)=O)NC(=O)[C@H](CCCNC(N)=O)NC(=O)[C@@H](NC(=O)CCC(C)C)CSSC[C@@H](C(N)=O)NC(=O)[C@H](CC(C)C)NC1=O [UPAR-354] ({Pentanoyl(4-Me)}-C[Cit]QYF[Pro(cis-4-F)][dA]ILC-NH2; disulfide 1-10)    < 1.58 nM
CCC[C@@H]1NC(=O)[C@H]([C@@H](C)CC)NC(=O)[C@@H]2C[C@@H](O)CN2C(=O)[C@@H]2CCCN2C(=O)[C@H](Cc2ccccc2)NC(=O)[C@H](Cc2ccc(O)cc2)NC(=O)[C@H](CCC(N)=O)NC(=O)[C@H](CCCNC(=N)N)NC(=O)[C@@H](NC(=O)[C@@H](NC(C)=O)c2ccccc2)CSSC[C@@H](C(N)=O)NC1=O [UPAR-486] (Ac-[Phg]CRQYFP[Hyp]I[Nva]C-NH2; disulfide 2-11)    < 1.58 nM

Kd in this record for CC[C@H](C)[C@@H]1NC(=O)[C@@H](C)NC(=O)[C@@H]2CCCN2C(=O)[C@H](Cc2ccccc2)NC(=O)[C@H](Cc2ccc(O)cc2)NC(=O)[C@H](CCC(N)=O)NC(=O)C(C)(C)NC(=O)[C@@H](NC(=O)CCC(C)C)CSSC[C@@H](C(N)=O)NC(=O)[C@H](CC(C)C)NC1=O [UPAR-468] ({Pentanoyl(4-Me)}-C[Aib]QYFP[dA]ILC-NH2; disulfide 1-10) : 1.58 to 10 nM

Field Kd (entry CC[C@H](C)[C@@H]1NC(=O)[C@@H]2CCCCN2C(=O)[C@@H]2CCCN2C(=O)[C@H](Cc2ccccc2)NC(=O)[C@H](Cc2ccc(O)cc2)NC(=O)[C@H](CCC(N)=O)NC(=O)[C@H](CCCNC(N)=O)NC(=O)[C@@H](NC(=O)CCC(C)C)CSSC[C@@H](C(N)=O)NC(=O)[C@H](CC(C)C)NC1=O [UPAR-469] ({Pentanoyl(4-Me)}-C[Cit]QYFP[Pip]ILC-NH2; disulfide 1-10) ) reads 1.58 to 10 nM

Reported Kd ( CCCCC(=O)N[C@H]1CSSC[C@@H](C(N)=O)NC(=O)[C@H](CCC)NC(=O)[C@H]([C@@H](C)CC)NC(=O)[C@@H]2C[C@@H](O)CN2C(=O)[C@@H]2CCCN2C(=O)[C@H](Cc2ccccc2)NC(=O)[C@H](Cc2ccc(O)cc2)NC(=O)[C@H](CCC(N)=O)NC(=O)[C@H](CC(C)C)NC1=O [UPAR-391] (Pentanoyl-CLQYFP[Hyp]I[Nva]C-NH2; disulfide 1-10) ) = < 1.58 nM
